- System: Liver
- PROTOCOL SUMMARY: Unbound intrinsic clearance in human liver microsomes at 10 uM preincubated for 5 mins followed by NADPH addition measured after 60 mins by HPLC-UV-MS analysis
- Assay type: ADME, microsome
- ASSAY CONDITIONS: 1 h
Label 1.0 when CL free is at or above 200 mL/min/kg; otherwise label 0.0.

{"MOLECULE": "CCS(=O)(=O)Nc1ccc(Oc2ccc(C(F)(F)F)cc2)c(-c2cn(C)c(=O)c3[nH]ccc23)c1", "CLASS LABEL": 0.0}
{"MOLECULE": "CCS(=O)(=O)Nc1ccc(OCC(C)(C)C)c(-c2cn(C)c(=O)c3[nH]ccc23)c1", "CLASS LABEL": 1.0}
{"MOLECULE": "CN(C)S(=O)(=O)Nc1ccc(Oc2ccccc2)c(-c2cn(C)c(=O)c3[nH]ccc23)c1", "CLASS LABEL": 1.0}

Query: State whether the measured CL free reaches 200 mL/min/kg, counting equality as reaching it, for "Cn1cc(-c2cc(NS(C)(=O)=O)ccc2Oc2ccc(F)cc2F)c2cc[nH]c2c1=O"
Reply: 0.0

Query: State whether the measured CL free reaches 200 mL/min/kg, counting equality as reaching it, for "Cn1cc(-c2cc(NS(C)(=O)=O)ccc2Oc2ccccc2)c2cc[nH]c2c1=O"
Reply: 0.0

Query: State whether the measured CL free reaches 200 mL/min/kg, counting equality as reaching it, for "Cn1cc(-c2cc(NS(C)(=O)=O)ccc2Oc2ccc(F)cc2Cl)c2cc[nH]c2c1=O"
Reply: 1.0

Query: State whether the measured CL free reaches 200 mL/min/kg, counting equality as reaching it, for "CCS(=O)(=O)Nc1ccc(OC2CCN(C)CC2)c(-c2cn(C)c(=O)c3[nH]ccc23)c1"
Reply: 0.0
